Reported IC50 values are given for each entry in this list.
# system.tested: UniProtKB Q15858
# Sequence (Q15858 whole entry): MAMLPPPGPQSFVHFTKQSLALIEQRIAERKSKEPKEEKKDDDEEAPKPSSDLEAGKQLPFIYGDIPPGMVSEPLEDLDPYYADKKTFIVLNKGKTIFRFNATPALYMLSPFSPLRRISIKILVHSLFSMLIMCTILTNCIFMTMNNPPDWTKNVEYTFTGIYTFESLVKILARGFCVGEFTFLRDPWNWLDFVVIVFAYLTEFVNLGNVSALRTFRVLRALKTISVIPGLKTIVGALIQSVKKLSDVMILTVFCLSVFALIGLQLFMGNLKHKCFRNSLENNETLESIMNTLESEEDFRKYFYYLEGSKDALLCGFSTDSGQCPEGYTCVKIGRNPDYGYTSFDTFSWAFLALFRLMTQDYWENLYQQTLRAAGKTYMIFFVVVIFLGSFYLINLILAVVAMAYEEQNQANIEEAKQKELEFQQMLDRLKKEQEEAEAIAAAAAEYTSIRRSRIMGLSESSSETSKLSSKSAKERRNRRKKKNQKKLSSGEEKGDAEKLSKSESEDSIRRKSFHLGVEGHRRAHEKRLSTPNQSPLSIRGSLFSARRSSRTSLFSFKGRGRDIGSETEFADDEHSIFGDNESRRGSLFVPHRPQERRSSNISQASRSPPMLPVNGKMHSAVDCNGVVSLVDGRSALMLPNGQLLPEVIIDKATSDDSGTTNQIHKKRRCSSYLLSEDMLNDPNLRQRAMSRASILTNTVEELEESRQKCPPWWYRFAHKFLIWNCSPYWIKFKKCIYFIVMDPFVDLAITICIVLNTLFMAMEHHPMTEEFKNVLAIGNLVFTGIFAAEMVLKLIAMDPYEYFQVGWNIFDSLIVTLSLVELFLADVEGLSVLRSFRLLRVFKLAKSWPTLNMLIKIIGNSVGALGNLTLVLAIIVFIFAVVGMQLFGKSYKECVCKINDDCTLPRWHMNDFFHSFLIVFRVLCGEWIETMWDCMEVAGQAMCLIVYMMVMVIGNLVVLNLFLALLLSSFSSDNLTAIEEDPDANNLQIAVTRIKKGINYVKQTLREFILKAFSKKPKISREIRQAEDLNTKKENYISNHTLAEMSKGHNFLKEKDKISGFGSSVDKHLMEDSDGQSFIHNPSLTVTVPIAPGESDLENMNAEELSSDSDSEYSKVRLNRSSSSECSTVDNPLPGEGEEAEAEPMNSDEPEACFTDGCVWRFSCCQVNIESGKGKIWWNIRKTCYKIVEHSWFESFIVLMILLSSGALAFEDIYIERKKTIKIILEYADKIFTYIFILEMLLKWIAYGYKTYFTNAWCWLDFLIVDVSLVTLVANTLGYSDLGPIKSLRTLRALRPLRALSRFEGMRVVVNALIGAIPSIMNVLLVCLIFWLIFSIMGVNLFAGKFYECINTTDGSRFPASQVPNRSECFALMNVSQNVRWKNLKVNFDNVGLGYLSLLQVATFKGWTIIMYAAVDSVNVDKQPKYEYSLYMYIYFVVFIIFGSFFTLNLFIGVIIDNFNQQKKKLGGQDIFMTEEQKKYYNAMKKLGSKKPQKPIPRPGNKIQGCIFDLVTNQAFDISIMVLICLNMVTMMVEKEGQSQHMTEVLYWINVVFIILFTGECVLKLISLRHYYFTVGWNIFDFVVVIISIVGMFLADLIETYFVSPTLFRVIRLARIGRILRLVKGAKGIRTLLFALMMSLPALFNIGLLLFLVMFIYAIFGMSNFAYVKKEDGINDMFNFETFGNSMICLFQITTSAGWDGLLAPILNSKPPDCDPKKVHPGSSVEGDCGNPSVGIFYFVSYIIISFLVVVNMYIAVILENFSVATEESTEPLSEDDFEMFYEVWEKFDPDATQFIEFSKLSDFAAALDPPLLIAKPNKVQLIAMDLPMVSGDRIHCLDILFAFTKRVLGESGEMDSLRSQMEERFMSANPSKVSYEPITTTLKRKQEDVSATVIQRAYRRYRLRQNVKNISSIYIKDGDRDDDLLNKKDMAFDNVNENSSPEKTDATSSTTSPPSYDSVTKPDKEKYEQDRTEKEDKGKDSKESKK
# Sequence (Q07699 19-218 partner): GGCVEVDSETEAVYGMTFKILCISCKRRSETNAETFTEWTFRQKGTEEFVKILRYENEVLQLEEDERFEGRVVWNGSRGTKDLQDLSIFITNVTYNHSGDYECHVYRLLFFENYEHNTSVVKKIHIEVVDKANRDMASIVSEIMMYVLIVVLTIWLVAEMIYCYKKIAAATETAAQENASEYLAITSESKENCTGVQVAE
# test.description: Tritiated compound competitive binding to membranes from cells heterologously expressing hNav1.7 and the β1 subunit (LBA)
# test.conditions: read-out: NaV1.7 (LBA)
quantity.measured: IC50 (µM)

In [3]: df
Out[3]:
                                   compound     system_tested  quantity_measured  comparison_operator  assay_value
0  O=C(O)[C@@H]1CCC[C@H]1Cc1cc(C2CC2)c(OCC23CC4CC(CC(C4)C2)C3)cc1F  UniProtKB Q15858               IC50                    =          3.1
1  O=C(O)[C@@H]1CCC[C@H]1[S+]([O-])c1cc(Cl)c(OCC23CC4CC(CC(C4)C2)C3)cc1F (stereo in doubt)  UniProtKB Q15858               IC50                    =         1.29
2  C[C@H]1CC[C@@H](C(=O)c2cc(C3CC3)c(OCC34CC5CC(CC(C5)C3)C4)cc2F)[C@@H]1C(=O)O  UniProtKB Q15858               IC50                    =          0.7
3  O=C(c1cc(Cl)c(OCC23CC4CC(CC(C4)C2)C3)cc1F)[C@H]1CCC[C@H]1C(=O)O  UniProtKB Q15858               IC50                    =          4.2
4  O=C(O)C1CCCC1Nc1cc(Cl)c(OCC23CC4CC(CC(C4)C2)C3)cc1F (stereo not shown)  UniProtKB Q15858               IC50                    =         3.02
5  O=C(O)[C@@H]1CCC[C@H]1S(=O)(=O)c1cc(Cl)c(OCC23CC4CC(CC(C4)C2)C3)cc1F (racemic)  UniProtKB Q15858               IC50                    =        0.454
6  CN(c1cc(Cl)c(OCC23C[C@H]4C[C@@H](C2)C[C@@H](C3)C4)cc1F)[C@@H]1CCC[C@H]1C(=O)O (relative stereo)  UniProtKB Q15858               IC50                    >           10
